MEASURED_ON: T1, His-tagged cynomolgus monkey CD38 (ACRO Biosystems, CD8-05223 [sic]) (cynomolgus monkey, UniProt Q5VAN0 43-301)
T1 construct: bought protein; used for ELISA coating and as SPR analyte; not shown: His tag
ASSAY_OVERVIEW: ELISA, 1 ug/ml scFv-Fc, coated His-tagged CD38
ELISA signal: recorded values
Answer with the value's number alone.

BINDER	ELISA signal
40769p2.2.A9 scFv-Fc (scFv, V domains shown, scFv-Fc) VH: EVQLLESGGGLVQPGGSLRLSCTASGITFSRFNMFWVRQAPGKGLEFVASIRDDGSWTYYADSVKGQFTISRDNSKNTLYLQMNSLRAEDTAVYYCAKDYNSKDFIYHYVMDVWGQGTTVTVSS VL: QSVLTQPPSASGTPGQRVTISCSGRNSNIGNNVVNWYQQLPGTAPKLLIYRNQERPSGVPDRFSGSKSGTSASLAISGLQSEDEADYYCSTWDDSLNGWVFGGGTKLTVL	1.67

ELISA signal recorded for this binder, 40769p2.2.E12 scFv-Fc (scFv, V domains shown, scFv-Fc) VH: EVQLLESGGGLIQPGGSLRLSCTASGFDFSSYGMHWVRQAPGKGLEWVGIISDTGGTTYYGDSVKGRFTISRDNSKSTLYLQMNSLRAEDTALYYCASYIMDVWGQGTTVTVSS VL: QSVLTQPPSASGTPGQRVTISCSGSNSNVGDNAVYWYQQPPGTAPKLLFYGTNRRPSGVPDRFSGSKSGTSASLAISGLQSEDEADYYCAAWDDSLNAWVFGGGTKLTVL , is 1.59
